# protocol details: inhibitors of Toxoplasma growth in IFN-γ-primed HeLa – cell-based, ME49Luc, luciferase, 72 h, dose response (AID 1259418)
# condition details: T. gondii ME49Luc in IFN-y HeLa, active compounds read low, -100% = high-dose IFN-γ control wells; at 19.5 µM unless noted
The campaign covered roughly 3,400 compounds. About 840 (25%) were called active. Roughly 11% stayed inconclusive and do not appear here. Not all results are given here. Results with a measured potency or affinity are listed apart.
measured attribute: max activity

>>> measurement("Cc1nc(OCC(=O)Nc2ccccc2Br)c2ccccc2n1")
"28.1% [at 0.16 µM] (inactive)"
>>> measurement("CN1CCN(C(=O)c2nn(C)c3c2CCN(S(C)(=O)=O)C3)CC1")
"18.7% [at 10 µM] (inactive)"
>>> measurement("Cc1cccc(C2=NC3(CCN(Cc4ccccc4C)CC3)NC2=O)c1")
"12% [at 0.16 µM] (inactive)"
>>> measurement("Cc1cc(C)c(S(=O)(=O)N2CCC3(CC2)NCCN=C3NC2CCCC2)cc1C")
"-17.7% (inactive)"
>>> measurement("Cn1nnc2c(NCCSc3c[nH]c4ccccc34)ncnc21")
"5.75% [at 0.16 µM] (inactive)"
>>> measurement("COc1cccc(-c2nc3c(s2)CN(C(=O)Nc2ccc(OC)cc2OC)CC3)c1")
"52.4% (inactive)"

Tell me the measured max activity of Clc1ccc(-c2nc(NC3CCCCC3)c3ccccc3n2)cc1 , please.
16.4% (inactive)

Tell me the measured max activity of COc1ccc(C)cc1NC(=O)Nc1ccc(-c2nc(-c3cccc(Br)c3)co2)cc1 , please.
-11.7% [at 0.35 µM] (inactive)

Tell me the measured max activity of CO[C@@H]1CCN(c2ncccn2)C[C@@H]1Cc1cccc(C)c1 , please.
9.87% (inactive)

Tell me the measured max activity of Clc1ccccc1CSc1nc(NCCc2ccccc2)c2ccccc2n1 , please.
13.2% [at 5 µM] (inactive)

Tell me the measured max activity of O=C(CC1N=C2c3ccccc3N=C(SCc3cc(=O)n4cc(Cl)ccc4n3)N2C1=O)NCc1ccccc1 (configuration not stated) , please.
8.94% (inactive)

###

Below, each of the molecules is paired with its reported max activity value.
# protocol details: inhibitors of Toxoplasma growth in IFN-γ-primed HeLa – cell-based, ME49Luc, luciferase, 72 h, dose response (AID 1259418)
# condition details: T. gondii ME49Luc in IFN-y HeLa, active compounds read low, -100% = high-dose IFN-γ control wells; at 19.5 µM unless noted
In all, about 3,400 compounds went through this assay and about 840 (25%) were called active. Not shown: some 11% with an inconclusive outcome. A selection follows. Results with a measured potency or affinity are listed apart.

>>> measurement("COC(=O)c1ccc(NC(=O)Nc2ccc(-c3nc(-c4ccccc4)co3)cc2)cc1")
"75.7% [at 10 µM] (inactive)"
>>> measurement("CCCCNC(=O)CC1Nc2c3ccccc3nc(=S)n2C1=O (centres undefined)")
"-20.7% [at 10 µM] (inactive)"
>>> measurement("Cc1ccc2c(c1C)-n1cccc1C1(CCN(C(=O)c3cccs3)CC1)N2")
"-15.1% [at 5 µM] (inactive)"

Tell me the measured max activity of O=S(=O)(c1cccs1)N1CCCCN2[C@H](C1)[C@@H](c1ccc(/C=C/c3ccccc3)cc1)[C@@H]2CO , please.
11.8% [at 10 µM] (inactive)

Tell me the measured max activity of Cc1ccccc1-c1nc(CN2CCN(C(=O)Nc3ccc(Cl)cc3)CC2)c(C)o1 , please.
-10.3% [at 0.35 µM] (inactive)

Tell me the measured max activity of COCC1CN(C(=O)Cc2ccsc2)Cc2nccn2C1 (centres undefined) , please.
35.1% (inactive)

Tell me the measured max activity of Cc1ccc(C)c(-c2coc(-c3ccc(NC(=O)CC(C)C)cc3)n2)c1 , please.
-23% [at 10 µM] (inactive)

Tell me the measured max activity of O=C(c1cccnc1)N1CCC2(CC1)Nc1ccc(Cl)cc1-n1cccc12 , please.
-27.3% [at 0.16 µM] (inactive)

Tell me the measured max activity of Cc1ccc(-c2coc(-c3ccc(NC(=O)COc4ccc(F)cc4)cc3)n2)cc1 , please.
-52.1% [at 0.68 µM] (inactive)

Tell me the measured max activity of O=C(CC1Nc2c3ccccc3nc(=S)n2C1=O)NCc1ccccc1 (centres undefined) , please.
26.5% [at 2.6 µM] (inactive)

Tell me the measured max activity of Cc1ccc(CNC(=O)Cn2c(=O)c(S(=O)(=O)c3ccccc3)cc3ccccc32)cc1 , please.
11% [at 0.16 µM] (inactive)

Tell me the measured max activity of O=C(CCC1Nc2c3ccccc3nc(=S)n2C1=O)NCCN1CCN(c2ccccc2)CC1 (centres undefined) , please.
19.8% [at 0.16 µM] (inactive)

Tell me the measured max activity of CCc1nc(OCC(=O)Nc2ccc(C)cc2C)c2ccccc2n1 , please.
12.9% [at 10 µM] (inactive)

Tell me the measured max activity of COc1ccc2c(c1)NC1(CCN(C(=O)c3ccccc3Cl)CC1)c1cccn1-2 , please.
-5.12% (inactive)

Tell me the measured max activity of Cc1ccc2c(c1C)-n1cccc1C1(CCN(C(=O)c3ccc(Br)cc3)CC1)N2 , please.
7.92% [at 0.16 µM] (inactive)

Tell me the measured max activity of O=C(CCC1Nc2c3ccccc3nc(=S)n2C1=O)NCCN1CCN(c2cccc(Cl)c2)CC1 (centres undefined) , please.
7.2% [at 5 µM] (inactive)

Tell me the measured max activity of COc1nc2c(c(C)nn2-c2ccccc2)c(C)c1CCC(=O)NCCc1c[nH]c2ccccc12 , please.
7.44% (inactive)

Tell me the measured max activity of O=C(Cc1ccccc1)N1CCC2(CC1)Nc1cc(F)ccc1-n1cccc12 , please.
8.98% [at 0.68 µM] (inactive)
